Tested on: LG0567-F671-PDC complex spheroids viability;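 further: spheroids exposed to compound for seven days before readout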
Test: Anticancer human tumor LG0567-F671-PDC patient-derived lung adenocarcinoma cell line growth inhibition [RAS]
Details: second compound 0.000949 µM; first compound 0.1 µM; active compounds read low
Would you kindly list viability, T/C for each of these compounds?
Report only the number, with the unit % understood.

Per the records, this compound ( CC(=O)OC12COC1CC(O)C1(C)C(=O)C(O)C3=C(C)C(OC(=O)C(O)C(NC(=O)OC(C)(C)C)c4ccccc4)CC(O)(C(OC(=O)c4ccccc4)C21)C3(C)C (stereo not drawn) + CCn1c(-c2cccnc2C(C)OC)c2c3cc(ccc31)N1CCOC(CC(NC(=O)C(C(C)C)N(C)C(=O)C3(F)CCN(C(=O)C#CC(C)(C)N(C)C)CC3)C(=O)N3CCCC(N3)C(=O)OCC(C)(C)C2)C1 ) has viability, T/C equal to 10.5

Per the records, this compound ( CC1(O)CCCC1n1c(=O)c(C(F)F)cc2cnc(NC3CCN(S(C)(=O)=O)CC3)nc21 (stereo not drawn) + CCn1c(-c2cccnc2C(C)OC)c2c3cc(ccc31)N1CCOC(CC(NC(=O)C(C(C)C)N(C)C(=O)C3(F)CCN(C(=O)C#CC(C)(C)N(C)C)CC3)C(=O)N3CCCC(N3)C(=O)OCC(C)(C)C2)C1 ) has viability, T/C equal to 18.2

Per the records, this compound ( C=CC(=O)N1CCN(c2nc(OCC3CCCN3C)nc3c(F)c(-c4nc(N)cc(C)c4C(F)(F)F)c(Cl)cc23)C(C)C1 (stereo not drawn) + CCn1c(-c2cc(N3CCN(C)CC3)cnc2C(C)OC)c2c3cc(ccc31)-c1csc(n1)CC(NC(=O)C1CC1C)C(=O)N1CCCC(N1)C(=O)OCC(C)(C)C2 ) has viability, T/C equal to 8.66

Per the records, this compound ( C=CC(=O)Nc1cc(Nc2nccc(-c3cn(C)c4ccccc34)n2)c(OC)cc1N(C)CCN(C)C + CCn1c(-c2cc(N3CCN(C)CC3)cnc2C(C)OC)c2c3cc(ccc31)-c1csc(n1)CC(NC(=O)C1CC1C)C(=O)N1CCCC(N1)C(=O)OCC(C)(C)C2 ) has viability, T/C equal to 11.7

Per the records, this compound ( CC(C)NCC(C(=O)N1CCN(c2ncnc3c2C(C)CC3O)CC1)c1ccc(Cl)cc1 (stereo not drawn) + CCn1c(-c2cc(N3CCN(C)CC3)cnc2C(C)OC)c2c3cc(ccc31)-c1csc(n1)CC(NC(=O)C1CC1C)C(=O)N1CCCC(N1)C(=O)OCC(C)(C)C2 ) has viability, T/C equal to 23.8

Per the records, this compound ( CCN1CCN(Cc2ccc(Nc3ncc(F)c(-c4cc(F)c5nc(C)n(C(C)C)c5c4)n3)nc2)CC1 + CCn1c(-c2cc(N3CCN(C)CC3)cnc2C(C)OC)c2c3cc(ccc31)-c1csc(n1)CC(NC(=O)C1CC1C)C(=O)N1CCCC(N1)C(=O)OCC(C)(C)C2 ) has viability, T/C equal to 23.9

Per the records, this compound ( CC(C)n1nc(-c2ccc3oc(N)nc3c2)c2c(N)ncnc21 + CCn1c(-c2cccnc2C(C)OC)c2c3cc(ccc31)N1CCOC(CC(NC(=O)C(C(C)C)N(C)C(=O)C3(F)CCN(C(=O)C#CC(C)(C)N(C)C)CC3)C(=O)N3CCCC(N3)C(=O)OCC(C)(C)C2)C1 ) has viability, T/C equal to 14.7

Per the records, this compound ( CCC(CC)c1cc(NC2CCC(N)C2)n2nccc2n1 (stereo not drawn) + CCn1c(-c2cccnc2C(C)OC)c2c3cc(ccc31)N1CCOC(CC(NC(=O)C(C(C)C)N(C)C(=O)C3(F)CCN(C(=O)C#CC(C)(C)N(C)C)CC3)C(=O)N3CCCC(N3)C(=O)OCC(C)(C)C2)C1 ) has viability, T/C equal to 16.6

Recorded values, source PubChem BioAssay AID2060889.
